Molecular target: Acetylcholinesterase (Homo sapiens)
Experiment: Acetylcholinesterase (AChE) small molecule antagonists: enzyme-based qHTS assay with human liver microsomes (AID 1347399); note: nearly all actives have a fitted effect of over 60% in size
Details: qHTS inhibition; series mostly up to 115 µM
Excerpt: National Center for Advancing Translational Sciences [NCATS] Division of Preclinical Innovation [DPI] U.S. Environmental Protection Agency [EPA] National Institutes of Environmental Health Sciences [NIEHS] National Toxicology Program [NTP] U.S. Food and Drug Administration [FDA] Acetylcholinesterase (AChE) is the primary cholinesterase in the body that hydrolyzes a key neurotransmitter, acetylcholine. Inhibition of AChE activity can lead to neurotoxicity. […]
Activity calls are given as the source filed them. Calls come from the whole dose curve.
endpointName: outcome

Observe how each entry below is paired with its result.
1) CCCCC(CC)COC(=O)CCCCC(=O)OCC(CC)CCCC (stereo unspecified) ... inactive
2) CC(C)N(c1ccccc1)C(C)C ... inactive
3) CC(=O)N[C@@H](CCC(N)=O)C(=O)O ... inactive
4) C[Si]1(C)N[Si](C)(C)N[Si](C)(C)N1 ... inactive

Consider CCCCOCCO . Its measured outcome is inactive

Field outcome (entry CNS(=O)(=O)c1cc(C(=O)N2CCC(CCN3C4CCC3CC(n3c(C)nc5ccccc53)C4)(c3cccc(F)c3)CC2)c(Cl)cc1F (stereo unspecified) ) reads inactive
